The origin of these recorded values is paper PMC7179419.

- Tested on: human colon adenocarcinoma cell line (LoVo)
- method_notes: cells
- Type: cell-based
- measurement_conditions: SI = IC50 BALB/3T3 / IC50 LoVo
- Procedure: For a more accurate evaluation of cytotoxic activity, the effect on normal murine embryonic fibroblast cell line (BALB/3T3) was also tested according to the previously published procedure. Detailed information concerning antiproliferation assay can be found in Supplementary Materials. […] The antiproliferative activity Four human cancer cell lines and one murine normal cell line were used to evaluate […]
Below: a set of entries, each annotated with reported SI (LoVo).

molecule | SI (LoVo)
N.N.[Cl][Pt][Cl] [cisplatin, reference compound] | 0.77
COc1cc2c(c(OC(=O)C(C)C)c1OC)-c1ccc(SC)c(=O)cc1[C@@H](NC(C)=O)CC2 | 1.27
COc1cc2c(c(OC)c1OC)-c1ccc(=O)c(O)cc1[C@@H](NC(C)=O)CC2 | 1.71
COc1cc2c(c(OC(=O)c3ccccc3)c1OC)-c1ccc(SC)c(=O)cc1[C@@H](NC(C)=O)CC2 | 4.71
COC(=O)Oc1c(OC)c(OC)cc2c1-c1ccc(SC)c(=O)cc1C(NC(C)=O)CC2 (stereo not shown) | 1.84
COc1cccc2c1C(=O)c1c(O)c3c(c(O)c1C2=O)C[C@@](O)(C(=O)CO)C[C@@H]3O[C@H]1C[C@H](N)[C@H](O)[C@H](C)O1 [doxorubicin, reference compound] | 0.49
CCOC(=O)Oc1c(OC)c(OC)cc2c1-c1ccc(SC)c(=O)cc1[C@@H](NC(C)=O)CC2 | 1.31

----------
- System: human colon adenocarcinoma cell line (LoVo)
- method_notes: cells
- Assay type: cell-based
- measurement_conditions: Homo sapiens, LoVo, 72 h, read-out: LoVo IC50
Threshold 600 nM: IC50 strictly smaller gives condition met, otherwise condition not met.

molecule | system_tested | label_class
COc1cc2c(c(OC(C)=O)c1OC)-c1ccc(SC)c(=O)cc1C(NC(C)=O)CC2 (stereo not shown) [Compound 4a, Acetyl Ester of 1-demethylthiocolchicine] | human colon adenocarcinoma cell line (LoVo) | condition met
CCOC(=O)Oc1c(OC)c(OC)cc2c1-c1ccc(SC)c(=O)cc1[C@@H](NC(C)=O)CC2 [Compound 4f] | human colon adenocarcinoma cell line (LoVo) | condition not met
COc1cc2c(c(O)c1OC)-c1ccc(SC)c(=O)cc1C(NC(C)=O)CC2 (stereo not shown) [Compound 3, 1-demethylthiocolchicine] | human colon adenocarcinoma cell line (LoVo) | condition met
COc1cc2c(c(OC)c1OC)-c1ccc(=O)c(O)cc1[C@@H](NC(C)=O)CC2 [Compound 1, 10-demethylcolchicine] | human colon adenocarcinoma cell line (LoVo) | condition not met
COC(=O)Oc1c(OC)c(OC)cc2c1-c1ccc(SC)c(=O)cc1C(NC(C)=O)CC2 (stereo not shown) [Compound 4e] | human colon adenocarcinoma cell line (LoVo) | condition met
COc1cc2c(c(OC(=O)c3ccccc3)c1OC)-c1ccc(SC)c(=O)cc1[C@@H](NC(C)=O)CC2 [Compound 4d, Benzyl Ester of 1-demethylthiocolchicine] | human colon adenocarcinoma cell line (LoVo) | condition met
COc1cc2c(c(OC(=O)C(C)C)c1OC)-c1ccc(SC)c(=O)cc1[C@@H](NC(C)=O)CC2 [Compound 4c] | human colon adenocarcinoma cell line (LoVo) | condition met
